List of IC50 tested on UniProt P16662.
Sequence (P16662 24-529): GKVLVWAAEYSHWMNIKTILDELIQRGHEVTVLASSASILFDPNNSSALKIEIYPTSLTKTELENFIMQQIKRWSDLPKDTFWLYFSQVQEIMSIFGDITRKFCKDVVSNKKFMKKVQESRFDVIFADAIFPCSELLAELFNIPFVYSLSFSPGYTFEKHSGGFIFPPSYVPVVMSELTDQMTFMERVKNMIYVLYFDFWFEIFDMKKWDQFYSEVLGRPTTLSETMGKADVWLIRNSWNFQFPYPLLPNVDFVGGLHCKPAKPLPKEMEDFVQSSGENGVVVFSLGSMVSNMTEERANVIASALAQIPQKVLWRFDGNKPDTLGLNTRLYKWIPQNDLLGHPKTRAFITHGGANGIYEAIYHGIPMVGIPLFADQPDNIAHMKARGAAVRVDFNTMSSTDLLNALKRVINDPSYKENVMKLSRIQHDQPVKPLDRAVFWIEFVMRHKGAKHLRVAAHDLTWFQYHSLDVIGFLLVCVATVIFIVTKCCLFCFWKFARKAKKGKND
QUANTITY_KIND: IC50

COMPOUND	READING
CCCSc1nc(N[C@@H]2C[C@H]2c2ccc(F)c(F)c2)c2nnn([C@@H]3C[C@H](OCCO[C@@H]4O[C@H](C(=O)O)[C@@H](O)[C@H](O)[C@H]4O)[C@@H](O)[C@H]3O)c2n1 [Ticagrelor-O-Glu, ticagrelor-O-glucuronide]	> 100 µM
CCCSc1nc(N[C@@H]2C[C@H]2c2ccc(F)c(F)c2)c2nnn([C@@H]3C[C@H](OCCO)[C@@H](O)[C@H]3O)c2n1	> 100 µM

====

Molecular target: UGT1A1 (Homo sapiens, UniProt P22309)
Sequence (P22309 26-533): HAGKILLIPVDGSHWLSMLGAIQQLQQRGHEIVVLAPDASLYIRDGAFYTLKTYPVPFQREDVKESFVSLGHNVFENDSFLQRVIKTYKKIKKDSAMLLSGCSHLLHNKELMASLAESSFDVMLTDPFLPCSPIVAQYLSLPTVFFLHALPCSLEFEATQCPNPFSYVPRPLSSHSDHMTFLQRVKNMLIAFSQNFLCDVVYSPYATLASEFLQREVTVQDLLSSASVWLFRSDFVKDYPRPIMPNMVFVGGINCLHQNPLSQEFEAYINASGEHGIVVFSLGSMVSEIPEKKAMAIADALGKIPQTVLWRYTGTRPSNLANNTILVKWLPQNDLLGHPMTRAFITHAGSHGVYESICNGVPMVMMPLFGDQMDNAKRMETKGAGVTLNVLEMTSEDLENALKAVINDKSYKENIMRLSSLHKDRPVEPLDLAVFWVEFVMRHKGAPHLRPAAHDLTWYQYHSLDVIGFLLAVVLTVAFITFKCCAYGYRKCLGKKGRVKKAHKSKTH
Test: UGT1A1 inhibition in HLM (SN-38 glucuronidation)
Type: in vitro ADME
Design: tissue XenoTech LLC; host or cells: pooled human liver microsomes
Conditions: human, human liver microsomes (HLM), probe SN-38; HLM, 100 μM test compound

ITEM_SMILES	inhibition at 100 µM
CCCSc1nc(N[C@@H]2C[C@H]2c2ccc(F)c(F)c2)c2nnn([C@@H]3C[C@H](OCCO)[C@@H](O)[C@H]3O)c2n1	56.8%

Source: paper PMC8552062
